// data source = paper PMC5540273

Item-by-item account of %Inh
system: MELK; settings: concentration: 1 μM, replicates: in singlicate; n = 1;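 note: KINOMEscan kinase panel screen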
// return numeric value only (unit: %, not printed)

These solved cases illustrate the format of a correct answer.
INSERT INTO assay_data (compound, experimental_system, recorded_number) VALUES
  ('Cc1ccc(NC(=O)c2ccc(Cl)c(Cl)c2)cc1-c1ccc(C(=O)Nc2ccncc2)cc1', 'MELK', 0),
  ('CS(=O)(=O)c1cccc(CNc2nc(Nc3ccc4c(c3)CCC(=O)N4)ncc2C(F)(F)F)c1', 'MELK', 26),
  ('N#CC1(c2cccc(C(=O)Nc3cccc(Oc4ccc5nc(NC(=O)C6CC6)sc5n4)c3)c2)CC1', 'MELK', 1),
  ('CCn1c(-c2nonc2N)nc2c(-c3ccccc3)ncc(OCCCN)c21.O=C(O)C(F)(F)F.O=C(O)C(F)(F)F', 'MELK', 20);

Any idea what %Inh was measured for Cn1cc(-c2cnc(N)c3c(-c4ccc5c(c4)CCN5C(=O)Cc4ccccc4)csc23)cn1 ? 0

Any idea what %Inh was measured for Cc1ccc(Nc2ccnc(Nc3ccc(C)c(F)c3)n2)cc1O.Cl ? 0

Any idea what %Inh was measured for O=C(Nc1n[nH]c2nc(-c3cccc(O)c3)ccc12)C1CC1 ? 3

Any idea what %Inh was measured for Cc1ccc(-c2ccc3occ(-c4ccc(S(C)=O)cc4)c3c2)nn1 (stereo not shown) ? 0

Any idea what %Inh was measured for O=C(Nc1n[nH]c2nc(-c3ccccc3)ccc12)C1CC1 ? 13

Any idea what %Inh was measured for CCNC(=O)/C=C/c1n[nH]c2cc(Sc3ccccc3C(=O)NC)ccc12 ? 7

Any idea what %Inh was measured for Cc1ccc(NC(=O)c2cccc(N3CCCCC3)c2)cc1-c1ccc(C(=O)NCC2CC2)cc1 ? 0

Any idea what %Inh was measured for CCNc1nccc(-c2c(-c3ccc(F)cc3)ncn2C2CCN(C)CC2)n1 ? 11

Any idea what %Inh was measured for O=C(Nc1c(F)cccc1F)c1cc(C(=O)c2ccccc2F)c[nH]1 ? 0

Any idea what %Inh was measured for COc1cccc(CC(=O)N2CCc3cc(-c4cn(C)c5ncnc(N)c45)ccc32)c1 ? 13

Any idea what %Inh was measured for CCOc1nccc(-c2c(-c3ccc(F)cc3)ncn2C2CCNCC2)n1 ? 0

Any idea what %Inh was measured for Cc1ccc(O)cc1Nc1ccnc2ccc(C(C)(C)C)cc12 ? 8

Any idea what %Inh was measured for CC(=O)Nc1cn2nc(Oc3cccc(NC(=O)c4cccc(C(F)(F)F)c4)c3)ccc2n1 ? 20

Any idea what %Inh was measured for COc1ccc(NC(=O)c2ccoc2)cc1-c1ccc(C(=O)NCC2CC2)cc1 ? 29

Any idea what %Inh was measured for O=C(O)C(F)(F)F.O=c1[nH]ccc2nc(N[C@@H]3CCNC3)nc(Nc3ccc4c(c3)S(=O)(=O)CC4)c12 ? 92.2

Any idea what %Inh was measured for CC(C)c1nc(-c2ccc(F)c(NS(=O)(=O)c3c(F)cccc3F)c2)c(-c2ccnc(Nc3ccc(N4CCOCC4)nc3)n2)s1 ? 45

Any idea what %Inh was measured for Cc1cccc(Nc2nc(NCCN)ncc2C(N)=O)c1 ? 1

Any idea what %Inh was measured for Fc1cc(Cl)ccc1Nc1ccnc2cc(-c3ccc(CN4CCSCC4)o3)ccc12 ? 0
